Tested on: HCC 2998
test: NCI tumour cell line growth inhibition, 48 h
Calls of active or inactive are those of the source. Cut-off read from the data, not from the text of the source: active = GI50 up to about 1.1 µM and inactive = higher.
Labels: TRUE (active), FALSE (inactive)

1) Cn1c2nc3ccccc3c-2cc2ccccc21 [NEOCRYPTOLEPINE]: FALSE
2) CN1CCN(c2ccc3nc(C4=C(O)C(=O)[C@@H]5C(=C4O)N=C(CO)N5C)[nH]c3n2)CC1: FALSE
3) COc1ccc(CC2NCCc3cc(OC)c(OC)cc32)cc1 (stereo unspecified): FALSE
4) COc1c(N2CCCCC2)c2c(=O)c3ccccc3oc2c2c3ccccc3n(C)c12: FALSE
5) O=CNNC(=O)Nc1cccc2ccccc12: FALSE
6) CCC1c2[nH]c3ccccc3c2C[C@H]2C(=O)NC(Cc3ccccc3)C(=O)N12 (stereo partly specified): FALSE
7) CC[C@H](C)[C@H]1NC(=O)[C@@H](NC(=O)[C@@H](CC(C)C)N(C)C(=O)C2CCCN2C(=O)[C@H](C)O)[C@@H](C)OC(=O)[C@@H]2Cc3ccccc3CN2C(=O)[C@@H]2CCCN2C(=O)[C@H](CC(C)C)NC(=O)[C@@H](C)C(=O)[C@H](C(C)C)OC(=O)C[C@@H]1O (stereo partly specified): TRUE
8) COc1ccc2c(c1)CC[C@@H]1C2CC[C@]2(C)C(=N\O)/C(=N/O)CC12 (stereo partly specified): FALSE
9) O=C1N/N=C\Nc2ccc(cc2)S(=O)(=O)c2ccc(cc2)/N=C\NNC1=O: FALSE
10) CC1(C)C(=S)C(C)(C)C1=S: FALSE
11) COc1ccc2c(O)c3[n+](cc2c1OC)CCc1cc2c(cc1-3)OCO2: FALSE

====

Tested on: DMS-114
test: NCI tumour cell line growth inhibition, 48 h
Calls of active or inactive are those of the source. Rule as the data show it: active = GI50 up to about 1.1 µM and inactive = higher.
Labels: y = active, n = inactive

1) CC/C(=N/O)c1ccc2[nH]c3c(C)cc([N+](=O)[O-])c(C)c3c2c1: n
2) O=C1/C(=C/c2ccccc2)CN(C(=O)OCC(Cl)(Cl)Cl)C/C1=C\c1ccccc1: n
3) COc1cccc(-c2cc(O)c3cc4c(cc3n2)OCO4)c1: y
4) CC1CC(=O)C(CC(=O)O)C1C(C(=O)C(=O)Nc1c(C#N)cccc1[N+](=O)[O-])[N+](=O)[O-] (stereo unspecified): n
5) Cc1c2nc3ccccc3sc-2cc(=O)c1C: n
6) COc1cc(/C=C2\[C@H]3c4c(c(OC)c(C)c(OC)c4OC)C[C@@H](C(=O)N2Cc2ccccc2)N3C(=O)OC(C)C)c(OC)c(C)c1OC: n

====

Test system: HL-60
test: NCI tumour cell line growth inhibition, 48 h
The source made the active and inactive calls. Rule as the data show it: active = GI50 up to about 1.1 µM and inactive = higher.
Labels: active, inactive

1) C[N+](C)(C)CCN[N+]1(C)CCCc2ccccc21 (centres undefined): active
2) COc1ccc(C2CC(c3cc4c(C)c(C(=O)c5ccccc5)oc4cc3O)=Nc3ccccc3S2)cc1OC (centres undefined): inactive
3) c1ccc2c(c1)CC1c3[nH]c4ccccc4c3CCN21 (centres undefined): inactive
4) COc1ccc(/C=C2\CCC/C(=C\c3ccc(O)c(CN4CCCCC4)c3)C2=O)cc1: inactive
5) O=C(CC1(O)C(=O)Nc2ccc([N+](=O)[O-])cc21)c1ccncc1 (centres undefined): inactive
6) O=C(O)CCc1nc(-c2ccccc2)c(-c2ccccc2)o1: inactive
7) CN(C)CC[N+]1=Nc2cccc3cccc(c23)N1: inactive
8) C=C1CC(CC)(CCN2C(=O)c3ccccc3C2=O)OC1=O (centres undefined): inactive
9) O=C(CCc1cc(-c2ccccc2)[nH]c(=S)n1)Nc1ccccc1[N+](=O)[O-]: inactive
10) O=C(CN1C(=O)c2ccccc2C1=O)C(O)CN1C(=O)c2ccccc2C1=O (centres undefined): inactive
11) Cc1[nH]c2ccccc2c1C1Cc2ccccc2N1C(=O)/C=C/C=C/c1ccccc1 (centres undefined): inactive
12) C=CCO/N=C/c1cc(/N=C(/S)c2ccoc2C)ccc1Cl: inactive
13) C/C=C(/C)C(=O)O[C@H]1[C@H]2[C@@H]([C@@H](OC(C)=O)[C@H](C)C(=O)[C@@]34C[C@@H](C)C(=O)[C@]3(/C=C(\C)[C@H]1OC(C)=O)O4)C2(C)C: active
14) COc1c(O)cc2c3c(ccnc13)NC=C2: inactive
15) CS(C)(=O)=Nn1c(=O)n2n(c1=O)C1c3ccccc3C2c2ccccc21: inactive
16) C[Si](C)(C)/C(Br)=C\CCN1C(=O)CCC1=O: inactive
17) O[C@H]1[C@H]2[C@H](O)CCCN2C[C@H]1O: inactive
18) CC1(C)OC2OC(C(COS(=O)(=O)C(F)(F)F)N=[N+]=[N-])C(OC(=O)c3ccccc3)C2O1 (centres undefined): inactive
19) O=C1c2ccccc2C(=O)N1C/C=N/NS(=O)(=O)c1ccc(Cl)cc1: inactive
20) NC1CC(=O)c2c1sc(Cl)c2Cl (centres undefined): inactive
21) O=C(Sc1n[nH]c(=O)[nH]c1=O)c1cccc2nc3ccccc3nc12: inactive
22) Cc1nc2c(=S)n(C)ncc2[nH]1: inactive
23) COc1cc([C@@H]2c3cc4c(cc3[C@H](O)[C@H]3COC(=O)[C@H]23)OCO4)cc(OC)c1OC: active
24) COc1cccc(-c2cccc(SC)n2)n1: inactive

====

System: NCI-H23
test: NCI tumour cell line growth inhibition, 48 h
Active and inactive are the calls of the source. Rule as the data show it: active = GI50 up to about 1.1 µM and inactive = higher.
assayMetric: GI50

1. NC(CC(O)(c1ccccc1)c1ccccc1)c1ccccc1S (stereo unspecified): 18.5 µM (inactive)
2. COc1cccc(-c2cc(O)c3cc(N4CCN(C)CC4)ccc3n2)c1: 2.54 µM (inactive)
3. COc1cccc(-c2cccc(SC)n2)n1: 23.8 µM (inactive)
4. O=c1c(-c2ccccc2)c(SCCN2CCOCC2)n(-c2ccccc2)c(=S)n1-c1ccccc1: > 100 µM (inactive)
5. CN(/C(=N\O)c1ccccc1)c1ccccc1: 24.4 µM (inactive)
6. c1ccc(NCn2cnc3ccccc32)cc1: > 100 µM (inactive)
7. C/C(=N\NS(=O)(=O)c1ccccc1)c1ccc(Cl)c(Cl)c1: 75.3 µM (inactive)
8. CC(=O)c1ccccc1NP(=O)(c1ccccc1)c1ccccc1: 79.1 µM (inactive)
9. CCCC(=O)N[C@@H](Cc1cc(I)c(O)c(I)c1)C(=O)NCCCNCCCCNCCCNC(=O)[C@@H](N)CCCN=C(N)N: 31.4 µM (inactive)
10. CCOC(=O)c1cc(C2CCN(Cc3ccccc3)C2=O)c(C(=O)C(=[N+]=[N-])C(C)=O)[nH]1 (stereo unspecified): > 100 µM (inactive)
11. CCCCNC(=O)c1cc(S(=O)(=O)n2ccnc2O)c(SC)cc1Cl: > 100 µM (inactive)
12. COC(=O)[C@@H]1[C@@H](c2cccc(Cl)c2)[C@H](C(=O)OC)C2(C[C@@]1(C)O)NCCS2 (stereo partly specified): 22.3 µM (inactive)
13. Cc1cccc(C)c1NC(=O)CCCC(=O)C1CC(=O)CCC1=O (stereo unspecified): > 100 µM (inactive)
14. CCOc1ccc(NC(=O)CC2SC(Nc3ccc(C)cc3)=NC2=O)cc1 (stereo unspecified): > 100 µM (inactive)
15. COC(=O)C(=O)C(C(=O)C(=O)Nc1ccc(F)cc1)c1nc2ccc([N+](=O)[O-])cc2nc1O (stereo unspecified): > 100 µM (inactive)
16. Nc1ncnc2c1N=CN(Oc1ccccc1)N2: > 100 µM (inactive)
17. O=C1C2Nc3ccccc3SC2C(=O)N1c1cccc([N+](=O)[O-])c1 (stereo unspecified): 55.8 µM (inactive)
18. Cc1c2nc3ccccc3sc-2cc(=O)c1C: 10.3 µM (inactive)
19. O=C(O)c1cccc2c1/C(=N/Nc1ccccc1)CC2: > 100 µM (inactive)
20. CC(=O)CC(=O)ON(C)C(C)=O: 43.4 µM (inactive)
21. COc1ccccc1NC(=O)CC(=O)NNCC(=O)Nc1nc(-c2ccccc2)cs1: > 100 µM (inactive)
22. Cn1c(=S)c2nc(SCc3cccnc3)[nH]c2n(C)c1=O: > 100 µM (inactive)
23. CN(C)C(=O)Oc1c(Br)cc(Br)cc1C(=O)OCc1ccccc1: 30.6 µM (inactive)
24. CN(CCO)c1nc2c(c(=O)[nH]1)CNCC2: > 100 µM (inactive)
25. CCc1cc2c(oc3cc(C)ccc32)c(=O)n1C: > 10 µM (inactive)
26. COC1CC(n2cnc3c(N)ncnc32)OC1CO (stereo unspecified): 81.5 µM (inactive)

====

Tested on: SK-OV-3
test: NCI tumour cell line growth inhibition, 48 h
Active and inactive are the calls of the source. No stated cut-off is given here; in the data, active = GI50 up to about 1.1 µM and inactive = higher.
Labels: 1 for active, -1 for inactive

1. Clc1ccc(-c2c(C3=NCCN3)nnn2-c2ccc(Cl)cc2)cc1: -1
2. Cc1[nH]c2ccccc2c1C1Cc2ccccc2N1C(=O)/C=C/C=C/c1ccccc1 (stereo not drawn): -1
3. CS(C)(=O)=Nn1c(=O)n2n(c1=O)C1c3ccccc3C2c2ccccc21: -1
4. COc1c(O)cc2c3c(ccnc13)NC=C2: -1
5. CCc1n[nH]c(=O)n1/N=C/c1ccccc1Cl: -1
6. COC(=O)CC1(O)C(C=C(C)C)C(C(=O)OC)C(=O)C(C(=O)OC)C1C(=O)OC (stereo not drawn): -1
7. CC1(C)C(=NNC(=S)NN)C(C)(C)C1=NNC(=S)NN: -1
8. CC1(C)CCCC2(C)C3=C(CCC12)C(=O)OC3 (stereo not drawn): -1
9. COc1cccc(-c2cc(O)c3cc4c(cc3n2)OCO4)c1: 1
10. O=C(O)/C(=C\c1ccccc1Cl)S(=O)(=O)c1ccccc1: -1
11. C[Si](C)(C)/C(Br)=C\CCN1C(=O)CCC1=O: -1
12. COC(=O)[C@@H](NC(=O)N(CCC#N)CCCN(C(=O)N[C@H](Cc1ccccc1)C(=O)OC)c1ccccc1)C(C)C: -1
13. C1CC[N+]23CCCC[N+]2(C1)CCCC3 (stereo not drawn): -1
14. C/C(=N\NC(=S)NCCCCNC(=S)N/N=C(\C)c1ccccn1)c1ccccc1: -1
15. Oc1ccc(Cl)cc1C1=NC(/N=C\c2ccccc2)=NC(c2ccccc2)C1 (stereo not drawn): -1
16. O=C1OC(O)C(Oc2ccc(Cl)cc2)=C1Cl (stereo not drawn): -1
17. O=c1oc2ccc([N+](=O)[O-])cc2c(Nc2ccc3c(c2)Oc2ccccc2O3)c1[N+](=O)[O-]: -1
18. O=C(O)c1cc2c(s1)C(=O)c1sccc1C2=O: -1
19. CC1=NN(c2cccc(Cl)c2)C2(SCC(=O)N2c2nc3ccccc3s2)C1=CC=Cc1ccccc1 (stereo not drawn): -1
20. COC1OC(COC(C)=O)C(OC(C)=O)C(OC(C)=O)C1NC(=O)N(CCCl)N=O (stereo not drawn): -1
21. CC(c1ccccc1)C(O)S(=O)(=O)O (stereo not drawn): -1
22. N#CCCN(c1ccc(/C=N/c2ccccc2Cl)cc1)S(=O)(=O)c1ccccc1: -1
23. Cn1c(=S)c2nc(SCc3cccnc3)[nH]c2n(C)c1=O: -1

Data origin: ChEMBL document CHEMBL1201862
